Target: α-Synuclein (αS) aggregation (Homo sapiens, UniProt P37840)
Construct: made in house; host or cells: E. coli BL21(DE3)
Experiment: Thioflavin T (ThT) dye-based αS aggregation assay (de novo)
Type: biochemical
Settings: sheet S17; average of 3 trials; Synuclein alone 206, ThT control 37
Readout kind: ThT intensity of Synuclein with ligand, Average

Worked examples follow.
C=C(c1ccc(C(=O)O)cc1)c1cc2c(cc1C)C(C)(C)CCC2(C)C
186.333
CCCC(CCC)C(=O)O
165.667

1 = Cc1ccc(NC(=O)c2ccc(NC(=O)c3ccc([N+](=O)[O-])c(NCCc4c[nH]c5ccccc45)n3)c(NCC3CCCCC3)n2)c(OCC(=O)O)n1
2 = OCCc1ccc(O)cc1
3 = O=C(O[C@@H]1Cc2c(O)cc(O)cc2O[C@@H]1c1cc(O)c(O)c(O)c1)c1cc(O)c(O)c(O)c1
Q: Task field, ranking: reported ThT intensity of Synuclein with ligand, Average, descending order. Dear reader, please state the labels in the requested order.
A: 2, 3, 1

src = paper PMC11061149
